# Tested On: Kras and SOS1 (biotin-tagged human Kras loaded with GDP, His-tagged human SOS1) (Homo sapiens, UniProt P01116, G12D)
# Construct: made in house; host or cells: E. coli (stated for Kras only)
# Sequence (P01116 1-188 isoform P01116-2 G12D): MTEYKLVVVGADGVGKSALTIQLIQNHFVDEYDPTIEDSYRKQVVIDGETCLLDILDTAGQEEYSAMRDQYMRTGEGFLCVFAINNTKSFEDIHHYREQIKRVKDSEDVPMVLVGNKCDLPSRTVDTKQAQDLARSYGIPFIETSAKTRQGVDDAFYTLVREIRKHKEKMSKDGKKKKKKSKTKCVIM
# Protocol Notes: Protein-protein interaction inhibition between Kras and SOS1 (KrasGl2D-SOS PPI) using AlphaScreen
# Format: binding
# Cond: AlphaScreen; biotin-tagged human Kras loaded with GDP, His-tagged human SOS1; read-out: KRAS G12D-SOS PPI IC50
Starred links: 1 amine or outer side, 2 acyl side, 3 side chain; linkers in the order of their positions; H or OH if unused. Positions of bridges follow the written chain, without caps; N, C: chain ends. Non-standard residues stand in square brackets, D forms with d. Residues, ends and D or L forms follow the SMILES beside them. *: point of attachment. hPhe(3-Cl-4-CF3) = N[C@@H](CCc1ccc(C(F)(F)F)c(Cl)c1)C(=O)O; hPhe(3-F,4-CF3) = N[C@@H](CCc1ccc(C(F)(F)F)c(F)c1)C(=O)O; NMePhe(2-CF3) = CN[C@@H](Cc1ccccc1C(F)(F)F)C(=O)O; NMePhe(3-CN) = CN[C@@H](Cc1cccc(C#N)c1)C(=O)O; NMePhe(4-Cl) = CN[C@@H](Cc1ccc(Cl)cc1)C(=O)O; hPhe(4-Cl) = N[C@@H](CCc1ccc(Cl)cc1)C(=O)O; NMedβ3hAla = C[C@H](CC(=O)[*:2])N(C)[*:1]; NMeCha = CN[C@@H](CC1CCCCC1)C(=O)O; NMeChg = CN[C@H](C(=O)O)C1CCCCC1; NMeF = CN[C@@H](Cc1ccccc1)C(=O)O; NMeI = CC[C@H](C)[C@H](NC)C(=O)O; NMeD = CN[C@@H](CC(=O)O)C(=O)O; NMeL = CN[C@@H](CC(C)C)C(=O)O; NMePra = C#CC[C@H](NC)C(=O)O; NMeV = CN[C@H](C(=O)O)C(C)C; d(β3hA) = C[C@@H](N)CC(=O)O; Ac6c = NC1(C(=O)O)CCCCC1; NMeA = CN[C@@H](C)C(=O)O; Piperidide = C1CCN(*)CC1; Pyrrolidide = C1CCN(*)C1; Ac5c = NC1(C(=O)O)CCCC1; Aze = O=C(O)[C@@H]1CCN1; NEtG = CCNCC(=O)O; Sar = CNCC(=O)O
Exam item: assign MET to entries whose IC50 is below 50 nM and NOT MET to entries at or above 50 nM. Note that a value of exactly 50 nM receives NOT MET.

Please check: IC50 for CC[C@H](C)[C@@H]1NC(=O)[C@H](C)N(C)C(=O)C[C@@H](C)NC(=O)[C@H](C(C)C)N(C)C(=O)[C@H](Cc2ccccc2)N(C)C(=O)[C@H](CC(C)C)N(C)C(=O)[C@H](CCc2ccc(C(F)(F)F)c(F)c2)NC(=O)CN(C)C(=O)[C@H](Cc2ccc(Cl)cc2)N(C)C(=O)[C@@H]2CCN2C(=O)CN(C)C1=O [Compound 782] (cyclo([Aze][NMePhe(4-Cl)][Sar][hPhe(3-F,4-CF3)][NMeL][NMeF][NMeV][d(β3hA)][NMeA]I[Sar])) , strictly under 50 nM or not?
MET

For CC[C@H](C)[C@@H]1NC(=O)[C@H](CC(C)C)N(C)C(=O)C[C@@H](C)NC(=O)[C@H](C(C)C)N(C)C(=O)C2(CCCC2)NC(=O)[C@@H]2CCCN2C(=O)[C@H](CCc2ccc(C(F)(F)F)c(Cl)c2)NC(=O)CN(C)C(=O)[C@H](Cc2cccc(C#N)c2)N(C)C(=O)CN(C)C(=O)CN(C)C1=O [Compound 975] (cyclo([Ac5c][NMeV][d(β3hA)][NMeL]I[Sar][Sar][NMePhe(3-CN)][Sar][hPhe(3-Cl-4-CF3)]P)) , is the recorded IC50 below the cut-off of 50 nM?
MET

Quick check: IC50 of CC[C@H](C)[C@@H]1NC(=O)[C@H](CC(C)C)N(C)C(=O)C[C@@H](C)NC(=O)[C@H](C(C)C)N(C)C(=O)C2(CCCCC2)NC(=O)[C@@H]2CCCN2C(=O)[C@H](CCc2ccc(C(F)(F)F)c(Cl)c2)NC(=O)CN(C)C(=O)[C@H](CC2CCCCC2)N(C)C(=O)CN(C)C(=O)CN(C)C1=O [Compound 439] (cyclo([Ac6c][NMeV][d(β3hA)][NMeL]I[Sar][Sar][NMeCha][Sar][hPhe(3-Cl-4-CF3)]P)) under 50 nM?
NOT MET

For this compound, is IC50 lower than 50 nM? CC[C@H](C)[C@@H]1NC(=O)[C@H](CC(C)C)N(C)C(=O)C[C@@H](C(=O)N2CCCC2)N(C)C(=O)[C@H](C2CCCCC2)N(C)C(=O)C2(CCCC2)NC(=O)[C@@H]2CCCN2C(=O)[C@H](CCc2ccc(Cl)cc2)NC(=O)CN(C)C(=O)[C@H](CC2CCCCC2)N(C)C(=O)CN(C)C(=O)CN(C)C1=O [Compound 1968] ([NMeL]I[Sar][Sar][NMeCha][Sar][hPhe(4-Cl)]P[Ac5c][NMeChg][NMeD]-Pyrrolidide; lactam N-11)
MET

Report whether reported IC50 is lower than 50 nM (strictly) for CC[C@H](C)[C@@H]1NC(=O)[C@H](CC(C)C)N(C)C(=O)C[C@@H](C(=O)N2CCCCC2)N(C)C(=O)[C@H](C2CCCCC2)N(C)C(=O)C2(CCCC2)NC(=O)[C@H](CC(=O)O)N(C)C(=O)[C@H](CCc2ccc(C(F)(F)F)c(Cl)c2)NC(=O)CN(C)C(=O)[C@H](CC2CCCCC2)N(C)C(=O)CN(C)C(=O)CN(C)C1=O [Compound 688] ([NMeL]I[Sar][Sar][NMeCha][Sar][hPhe(3-Cl-4-CF3)][NMeD][Ac5c][NMeChg][NMeD]-Piperidide; lactam N-11)
MET

Decide: IC50 of CC[C@H](C)[C@@H]1NC(=O)[C@H](CC(C)C)N(C)C(=O)C[C@@H](C)N(C)C(=O)[C@H](C(C)C)N(C)C(=O)C2(CCCC2)NC(=O)[C@@H]2CCCN2C(=O)[C@H](CCc2ccc(C(F)(F)F)c(Cl)c2)NC(=O)CN(C)C(=O)[C@H](Cc2ccccc2C(F)(F)F)N(C)C(=O)CN(C)C(=O)CN(C)C1=O [Compound 1567] (cyclo([Ac5c][NMeV][NMedβ3hAla][NMeL]I[Sar][Sar][NMePhe(2-CF3)][Sar][hPhe(3-Cl-4-CF3)]P)) strictly below 50 nM?
MET

Does C#CC[C@H]1C(=O)N(C)[C@H](C(=O)N2CCCCC2)CC(=O)N(C)[C@@H](CC(C)C)C(=O)N[C@@H]([C@@H](C)CC)C(=O)N(C)CC(=O)N(C)CC(=O)N(C)[C@@H](CC2CCCCC2)C(=O)N(C)CC(=O)N[C@@H](CCc2ccc(C(F)(F)F)c(Cl)c2)C(=O)N2CCC[C@H]2C(=O)NC2(CCCC2)C(=O)N1C [Compound 284] ([NMeL]I[Sar][Sar][NMeCha][Sar][hPhe(3-Cl-4-CF3)]P[Ac5c][NMePra][NMeD]-Piperidide; lactam N-11) have IC50 strictly under 50 nM?
NOT MET

IC50 strictly < 50 nM for this compound? CC[C@H](C)[C@@H]1NC(=O)[C@H](CC(C)C)N(C)C(=O)C[C@@H](C)NC(=O)[C@H](C(C)C)N(C)C(=O)C2(CCCC2)NC(=O)[C@@H]2CCCN2C(=O)[C@H](CCc2ccc(C(F)(F)F)c(Cl)c2)NC(=O)CN(CC)C(=O)[C@H](CC2CCCCC2)N(C)C(=O)CN(C)C(=O)CN(C)C1=O [Compound 395] (cyclo([Ac5c][NMeV][d(β3hA)][NMeL]I[Sar][Sar][NMeCha][NEtG][hPhe(3-Cl-4-CF3)]P))
MET

Note: attention shifts to another entry.
hey, is IC50 for CC[C@H](C)[C@@H]1NC(=O)[C@H](CC(C)C)N(C)C(=O)C[C@@H](C(=O)N(C)C)N(C)C(=O)[C@H]([C@@H](C)CC)N(C)C(=O)C2(CCCC2)NC(=O)[C@@H]2CCCN2C(=O)[C@H](CCc2ccc(C(F)(F)F)c(Cl)c2)NC(=O)CN(C)C(=O)[C@H](CC2CCCCC2)N(C)C(=O)CN(C)C(=O)CN(C)C1=O [Compound 1865] ([NMeL]I[Sar][Sar][NMeCha][Sar][hPhe(3-Cl-4-CF3)]P[Ac5c][NMeI][NMeD]-NMe2; lactam N-11) lower than 50 nM or not?
MET
